# Target System: T113V/G121S-ecDHFR (Escherichia coli, UniProt P0ABQ4, G121S/T113V)
# Protocol Summary: Ligand-binding assay, tryptophan fluorescence titration
Experimental Readout: Kd (µM)
One number for each entry, in µM.

Value lookup for Kd; key = `NC(=O)C1=CN([C@@H]2O[C@H](COP(=O)(O)OP(=O)(O)OC[C@H]3O[C@@H](n4cnc5c(N)ncnc54)[C@H](OP(=O)(O)O)[C@@H]3O)[C@@H](O)[C@H]2O)C=CC1`
77.5

###

# Target System: M42F/G121V-ecDHFR (Escherichia coli, UniProt P0ABQ4, G121V/M42F)
# Sequence (P0ABQ4 1-159 M42F/G121V): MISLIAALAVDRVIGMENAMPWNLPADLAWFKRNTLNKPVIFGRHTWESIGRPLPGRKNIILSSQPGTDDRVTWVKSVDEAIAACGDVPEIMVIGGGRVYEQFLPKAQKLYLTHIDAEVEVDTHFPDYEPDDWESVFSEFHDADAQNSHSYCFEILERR
# Protocol Summary: Ligand-binding assay, tryptophan fluorescence titration
Experimental Readout: pKd
Numbers only, as −log10 of the molar value.

Value lookup for pKd; key = `NC(=O)C1=CN([C@@H]2O[C@H](COP(=O)(O)OP(=O)(O)OC[C@H]3O[C@@H](n4cnc5c(N)ncnc54)[C@H](OP(=O)(O)O)[C@@H]3O)[C@@H](O)[C@H]2O)C=CC1`
4.13
